List of phosphorylation enrichment values.
# EXPERIMENTAL_SYSTEM: FGFR3 (UniProt P22607)
# Sequence (P22607 whole entry, looked up): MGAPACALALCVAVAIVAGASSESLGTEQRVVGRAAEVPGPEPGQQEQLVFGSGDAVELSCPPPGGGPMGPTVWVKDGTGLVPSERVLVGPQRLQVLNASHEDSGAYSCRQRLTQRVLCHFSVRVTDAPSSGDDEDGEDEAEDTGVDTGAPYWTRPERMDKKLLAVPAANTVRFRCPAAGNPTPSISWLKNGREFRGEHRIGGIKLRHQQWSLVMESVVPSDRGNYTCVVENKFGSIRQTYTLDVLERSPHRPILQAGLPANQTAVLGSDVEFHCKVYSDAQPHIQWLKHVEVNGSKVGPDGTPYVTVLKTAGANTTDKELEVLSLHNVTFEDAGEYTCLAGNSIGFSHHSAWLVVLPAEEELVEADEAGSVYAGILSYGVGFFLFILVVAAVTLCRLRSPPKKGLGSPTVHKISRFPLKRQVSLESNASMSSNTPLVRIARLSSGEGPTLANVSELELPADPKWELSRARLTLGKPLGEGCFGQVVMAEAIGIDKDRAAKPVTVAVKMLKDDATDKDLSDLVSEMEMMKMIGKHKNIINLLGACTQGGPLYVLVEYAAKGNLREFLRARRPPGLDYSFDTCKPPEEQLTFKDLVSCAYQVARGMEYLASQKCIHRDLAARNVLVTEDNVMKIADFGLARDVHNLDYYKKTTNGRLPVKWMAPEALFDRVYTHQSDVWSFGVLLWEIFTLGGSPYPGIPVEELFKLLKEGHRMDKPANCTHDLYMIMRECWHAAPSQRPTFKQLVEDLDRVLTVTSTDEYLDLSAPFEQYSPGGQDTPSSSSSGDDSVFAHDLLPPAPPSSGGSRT
# MEASUREMENT_NOTES: phosphorylation enrichment, bacterial display (enrichment ratio); higher = better substrate or ligand; peptides without Tyr show the background;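 further: 11-residue human phosphosite peptides and single-mutation variants displayed on the E. coli surface, counted by deep sequencing, each peptide's frequency after selection divided by its frequency in the unselected input library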;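 further: frequency after pTyr selection over input frequency; kinase dosed for 20-30% of maximal phosphorylation in three min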
Lab note: jot the number down without any unit.

Here is how some sequences turned out for phosphorylation enrichment.
[
  {
    "SEQUENCE_CONTENT": "TKLKDYFIFNK [CCDC42_Y149_A144T_YF]",
    "phosphorylation enrichment": 0.871
  },
  {
    "SEQUENCE_CONTENT": "QSLEPYTKQQL [STAT3_Y640_V637L]",
    "phosphorylation enrichment": 0.603
  },
  {
    "SEQUENCE_CONTENT": "DAANNYARGHY [TUBA3E_Y103_S101N]",
    "phosphorylation enrichment": 0.45
  },
  {
    "SEQUENCE_CONTENT": "QNTGFYFDLFG [PTPN11_Y62_D61Y_YF]",
    "phosphorylation enrichment": 2.42
  },
  {
    "SEQUENCE_CONTENT": "GYAGKYIAMVM [CYP19A1_Y441_C437Y]",
    "phosphorylation enrichment": 0.584
  },
  {
    "SEQUENCE_CONTENT": "NSRFTYKLEVK [USH2A_Y3747_YF]",
    "phosphorylation enrichment": 0.761
  }
]

q: Quick one: phosphorylation enrichment of ADCRYYAFPQM [GAMT_Y223] ?
a: 8.74
